Reference source: patent US20240158446A1

target: GDP-bound KRAS wild-type protein (Homo sapiens, UniProt P01116); assay: Binding to KRAS by surface plasmon resonance (SPR), Single Cycle Kinetics; conditions: SPR, Single Cycle Kinetics, GDP-bound KRAS wild-type protein; read-out: KRAS KD
Sequence (P01116 whole entry): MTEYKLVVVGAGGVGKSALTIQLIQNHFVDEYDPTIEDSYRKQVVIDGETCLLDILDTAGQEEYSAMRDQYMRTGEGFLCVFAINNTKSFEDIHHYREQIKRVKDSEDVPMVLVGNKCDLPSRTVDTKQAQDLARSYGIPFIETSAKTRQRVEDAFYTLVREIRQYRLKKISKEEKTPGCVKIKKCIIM
Property: pKd
Kindly note that pKd refers to -log10 of the concentration in mol/L and answer with the value alone.

Check out these entries, answers already filled in.
- CCO[C@@H]1C[C@H]2C(=O)NC3(CC(F)(F)C3)C(=O)N(C)[C@@H](C3CCCC3)C(=O)N(C)[C@H](CC)CC(=O)N(C)[C@@H](CC3CC3)C(=O)N[C@@H]([C@@H](C)CC)C(=O)N(C)CC(=O)N(C)[C@H]3C/C=C\CCN(C3=O)[C@@H](Cc3ccc(C(F)(F)F)cc3)C(=O)N(C)CC(=O)N[C@@H](CCc3cc(F)c(C(F)(F)F)c(F)c3)C(=O)N2C1: 9.22
- CCCN(C)C(=O)[C@@H]1CC(=O)N(C)[C@@H](C(C)C)C(=O)N[C@@H]([C@@H](C)CC)C(=O)N(C)CC(=O)N(C)[C@H]2C/C=C\CCN(C2=O)[C@@H](Cc2ccc(C(F)(F)F)cc2)C(=O)N(C)CC(=O)N[C@@H](CCc2ccc(C(F)(F)F)c(OC)c2)C(=O)N2C[C@@H](C)C[C@H]2C(=O)NC2(CCC2)C(=O)N(C)[C@@H](C2CCCC2)C(=O)N1C: 9.62
- CC[C@H](C)[C@@H]1NC(=O)[C@@H]2CCCc3ccc(cc3)C[C@@H](C(=O)N(C)CC(=O)N[C@@H](CCc3ccc(C(F)(F)F)c(OC)c3)C(=O)N3CC4(CC4)C[C@H]3C(=O)NC3(CC(C)(C)C3)C(=O)N(C)[C@@H](C3CCCC3)C(=O)N(C)[C@H](C(=O)N(C)CC)CC(=O)N2C)N2CC/C=C\C[C@@H](C2=O)N(C)C(=O)CN(C)C1=O: 9.66
- CCO[C@@H]1C[C@H]2C(=O)NC3(CC(C)(C)C3)C(=O)N(C)[C@@H](C3CCCC3)C(=O)N(C)[C@H](C(=O)N(C)CC)CC(=O)N(C)[C@@H](COC)C(=O)N[C@@H]([C@@H](C)CC)C(=O)N(C)CC(=O)N(C)[C@H]3C/C=C\CCN(C3=O)[C@@H](Cc3ccc(C)cc3)C(=O)N(C)CC(=O)N[C@@H](CCc3ccc(C(F)(F)F)c(OC)c3)C(=O)N2C1: 9.96
- CCCN(C)C(=O)[C@@H]1CC(=O)N(C)[C@@H](C2CC2)C(=O)N[C@@H]([C@@H](C)CC)C(=O)N(C)CC(=O)N(C)[C@H]2C/C=C\CCN(C2=O)[C@@H](Cc2ccc(C(F)(F)F)cc2)C(=O)N(C)CC(=O)N[C@@H](CCc2cc(F)c(C(F)(F)F)c(F)c2)C(=O)N2C[C@H](OCC)C[C@H]2C(=O)NC2(CCC2)C(=O)N(C)[C@@H](C2CCCC2)C(=O)N1C: 10.00
- CC[C@H](C)[C@@H]1NC(=O)[C@H](CC)N(C)C(=O)C[C@@H](C(=O)N(C)C)N(C)C(=O)[C@H](C2CCCC2)N(C)C(=O)C2(CCC2)NC(=O)[C@@H]2C[C@@H](F)CN2C(=O)[C@H](CCc2cc(F)c(C(F)(F)F)c(F)c2)NC(=O)CN(C)C(=O)[C@H](Cc2ccc(C(F)(F)F)cc2)N2CC/C=C\C[C@@H](C2=O)N(C)C(=O)CN(C)C1=O: 10.60
- CCCOC[C@H]1C(=O)N[C@@H]([C@@H](C)CC)C(=O)N(C)CC(=O)N(C)[C@H]2C/C=C\CCN(C2=O)[C@@H](Cc2ccc(C)cc2)C(=O)N(C)CC(=O)N[C@@H](CCc2cc(F)c(C(F)(F)F)c(F)c2)C(=O)N2C[C@@H](C)C[C@H]2C(=O)NC2(CC(C)(C)C2)C(=O)N(C)[C@@H](C2CCCC2)C(=O)N(C)[C@H](C(=O)N(C)CC)CC(=O)N1C: 9.80
- C=CCN1CC(=O)N(C)[C@H]2C/C=C\CCN(C2=O)[C@@H](Cc2ccc(C(F)(F)F)cc2)C(=O)N(C)CC(=O)N[C@@H](CCc2cc(F)c(C(F)(F)F)c(F)c2)C(=O)N2C[C@H](OCC)C[C@H]2C(=O)NC2(CC(C)(C)C2)C(=O)N(C)[C@@H](C2CCCC2)C(=O)N(C)[C@H](C(=O)N(C)C)CC(=O)N(C)[C@@H](CCC)C(=O)N[C@@H]([C@@H](C)CC)C1=O: 9.80

Reported pKd for "CCC[C@H]1C(=O)N[C@@H]([C@@H](C)CC)C(=O)N(C2CC2)CC(=O)N(C)[C@H]2C/C=C\CCN(C2=O)[C@@H](Cc2ccc(C(F)(F)F)cc2)C(=O)N(C)CC(=O)N[C@@H](CCc2ccc(C(F)(F)F)c(OC)c2)C(=O)N2C[C@H](OCC)C[C@H]2C(=O)NC2(CC(C)(C)C2)C(=O)N(C)[C@@H](C2CCCC2)C(=O)N(C)[C@H](C(=O)N(C)C)CC(=O)N1C" : what is it? 9.74

Next entry: "CCO[C@@H]1C[C@H]2C(=O)NC3(CC(C)(C)C3)C(=O)N(C)[C@@H](C3CCCC3)C(=O)N(C)[C@H](C(=O)N(C)CC)CC(=O)N(C)[C@H]3CCCCCc4ccc(cc4)C[C@@H](C(=O)N(C)CC(=O)N[C@@H](CCc4ccc(C(F)(F)F)c(OC)c4)C(=O)N2C1)N1CC/C=C\C[C@@H](C1=O)N(C)C(=O)CN(C)C(=O)[C@H]([C@@H](C)CC)NC3=O" 9.92

Follow-up item: "CCCN(C)C(=O)[C@@H]1CC(=O)N(C)[C@@H](CC(F)F)C(=O)N[C@@H]([C@@H](C)CC)C(=O)N(C)CC(=O)N(C)[C@H]2C/C=C\CCN(C2=O)[C@@H](Cc2ccc(C(F)(F)F)cc2)C(=O)N(C)CC(=O)N[C@@H](CCc2cc(F)c(C(F)(F)F)c(F)c2)C(=O)N2C[C@H](OCC)C[C@H]2C(=O)NC2(CC(C)(C)C2)C(=O)N(C)[C@@H](C2CCCC2)C(=O)N1C" 9.92
